- method: Oral gavage pharmacokinetics, jugular and portal vein sampling, first pass metabolism
- Assay type: in vivo, rat
- condition_notes: male, Sprague Dawley, rat, plasma; rats; Compound 1 75 mg/kg oral gavage
The molecules listed here are annotated with their Tmax.
Write the value in min as a bare number.

molecule: COc1cc2c(cc1OC)-c1n[nH]c(N(c3cccc(F)c3)[C@H]3O[C@@H](C(=O)O)[C@H](O)[C@@H](O)[C@@H]3O)c1C2 [Cpd 1-GluA]
Tmax [min]: 54

molecule: COc1cc2c(cc1OC)-c1n[nH]c(Nc3cccc(F)c3)c1C2 [Compound 1]
Tmax [min]: 15

Q: # get_value(readout='Tmax', item= COc1cc2c(cc1OC)-c1nn(C3OC(C(=O)O)C(O)C(O)C3O)c(Nc3cccc(F)c3)c1C2 (stereo in doubt) [Cpd 1-GluB] )
Ans: 30
